# TEST_SUMMARY: qHTS Assay for Lipid Storage Modulators in Drosophila S3 Cells
# DETAILS: BODIPY lipid droplet fluorescence, 18-24 h, cells fed with added oleic acid; series mostly up to 46.1 µM
In all, about 320,000 compounds went through this assay and about 2,100 (0.66%) were called active. About 53% were inconclusive and are not listed. Calls follow the shape of the dose curve; as a rule, active = well fitted inhibition curve with a large enough effect in the signal ratio, with a control signal flat (not every such curve was filed as active); inconclusive = small, poorly fitted or top-dose-only effect, or effect the other way, or a change in a side signal; inactive = flat fitted curve, though single readings scatter; the % refers to the signal ratio. For the sample, actives were picked, then their nearest neighbours and some compounds at random.
Permitted responses: True = active, False = inactive

# input I would be grateful if you could indicate the recorded call for `CC(=Nc1ccccc1O)c1sc2ccccc2c1O` .
# output True

# input # outcome recorded in this test, key = `COc1ccccc1CN1CCSCC1`
# output True

# input What call does the record list for `O=C(CCC(=O)c1ccc(F)cc1)Nc1cccc(C(F)(F)F)c1` ?
# output False

# input Status in this test for `COc1ccc(-n2cccc2/C=C2\C(=N)N3N=C(c4ccco4)SC3=NC2=O)cc1` ?
# output False

# input How did this test come out for `c1ccc(C[n+]2c(-c3ccccc3)csc2Nc2ccccc2)cc1` ?
# output False

# input Hello, I am checking results. What call was entered for CN(C)C(CNC(=O)CN1C(=O)NC2(CCc3ccccc32)C1=O)c1ccco1 (configuration not stated) ?
# output False

# input Could you please tell me the result logged for `O=[N+]([O-])c1ccc(-c2csc(Nc3ccccc3)[n+]2Cc2ccccc2)cc1` in this assay?
# output True

# input What did this assay record as the result for `CCOc1ccc(Cl)cc1S(=O)(=O)N1CCCC1` ?
# output False

# input Please indicate how the test categorized `Cc1ccccc1OCC(=O)OCC(=O)N1CCCc2ccccc21` .
# output False

# input Please state the recorded outcome for this molecule: `CC(=Nc1ccc(O)cc1)c1sc2ccccc2c1O`
# output False

# input For CCOc1c(N2CC(C)OC(C)C2)c(=O)c1=O (configuration not stated) , which call appears in the assay record?
# output False

# input Each molecule tested received a call. Report the one for `COc1cccc(CN2CCSCC2)c1` .
# output False
